Target: T1, human B-cell maturation antigen (BCMA) on cells (human, UniProt Q02223 1-184)
T1 construct: Recombinant on HEK293 or K562 cells, or endogenous on cell lines (H929, RPMI 8226, OPM2, MM1S, Daudi); also called hBCMA; huBCMA
T1 chain: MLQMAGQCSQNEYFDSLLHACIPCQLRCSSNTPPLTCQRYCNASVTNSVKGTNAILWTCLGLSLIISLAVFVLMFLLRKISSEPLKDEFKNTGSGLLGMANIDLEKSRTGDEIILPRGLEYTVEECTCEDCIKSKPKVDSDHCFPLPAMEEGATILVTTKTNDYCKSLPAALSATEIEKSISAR
Experiment: flow cytometry on BCMA-expressing HEK293 cells vs control cells, crude lysate or bacterial supernatant; clone listed in Table E2

>  <binder>
BCMA-7 scFv (scFv) scFv: QVQLVQSGGGLVQPGRSLRLSCTASGFTFGDYAMSWFRQAPGKGLEWVGFIRSKAYGGTTEYAASVKGRFTISRDDSKSIAYLQMNSLKTEDTAVYYCAAWSAPTDYWGQGTLVTVSSGGGGSGGGGSGGGGSVIQLTQSPSSLSASVGDRVTITCRASQDIGDYLAWFQQRPGKAPKSLIYVASTLQSGVPSRFSGSGSGTHFTLTINSLQPEDFATYYCQQYHSHPWTFGPGTKVDIK

>  <binding result>
binds

$$$$
>  <binder>
BCMA-45 scFv (scFv) scFv: QVQLVQSGGGLVQPGRSLRLSCTASGFTFGDYAMSWFRQAPGKGLEWVGFIRSKAYGGTTEYAASVKGRFTISRDDSKSIAYLQMNSLKTEDTAVYYCAAWSAPTDYWGQGTLVTVSSGGGGSGGGGSGGGGSAIRMTQSPSSLSASVGDRVTITCRASQGIGRSLAWYKQKPGGVPQLLIHDASSLRSGVPSRFSGSGSGTEFTLTISGVQSEDSATYHCQQLNGYPWTFGQGTKVDIK

>  <binding result>
binds

$$$$
>  <binder>
BCMA-41 scFv (scFv) scFv: QVQLVQSGGGLVKPGGSLRLSCAASGFTFSDYYMSWIRQAPGKGLEWVSYISSSGNTIYYADSVKGRFTISRDNAKNSLYLQMNSLRAEDTAVYYCAKVDGDYVDDYWGQGTLVTVSSGGGGSGGGGSGGGGSQPVLTQPPSVSGTPGQRVTIPCSGSSSNIGGNSVDWFQEVPGTAPKLLIYANDRRPSGVPDRFSGTKSGTSASLAIRGLQSDDDAHYYCESWDDALNGHVFGGGTKLTVL

>  <binding result>
binds

$$$$
